Cited source for all entries: patent US20240270826A1

- target: Human SARS-CoV-2_Wuhan S (SmT1) (SARS-CoV-2 (Wuhan), UniProt P0DTC2 14-1208)
- test details: SPR, VHH over immobilised S
measurement kind: kon (M⁻¹ s⁻¹)
// return numeric value only (unit: M⁻¹ s⁻¹, not printed)

NRCoV2-07 VHH (VHH) VHH: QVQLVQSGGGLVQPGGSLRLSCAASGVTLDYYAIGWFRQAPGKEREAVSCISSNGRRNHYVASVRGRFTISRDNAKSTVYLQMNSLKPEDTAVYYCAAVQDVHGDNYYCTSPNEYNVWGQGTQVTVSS    378000
NRCoV2-MRed22 VHH (VHH) VHH: EVQLVESGGGLVQPGGSLRLSCAASGSVFASNAMGWYRQAPGKQRELVATISSRGSTNYADSVKGRFTISRDNAKNTVYLQMNSLGPEDTAVYYCNAREFTGFDYWGQGTQVTVSS    347000
NRCoV2-17 VHH (VHH) VHH: EVQLQQSGGGLVQTGGSLRLSCAAAGSPFSQLAMSWYRQISGKERAWVASISPTGNRSYSKIAKGRFTISRDNAKNTVTLQMTSLKPEDTAAYICQAANVNGGDYWGQGTQVTVSS    614000

Now look at this one.
For the binder NRCoV2-S2G3 VHH (VHH) VHH: QVQLVQSGGGSVQAGGSLRLSCAASGSTFGIFLMGWRRQAPGKQRELVAHITSGGATNYADSVKGRFTISRDNAKNTVYLQMNSLEPEDTAVYYCYTTKRDDASVYWGQGTQVTVSS , what kon is on record?
324000
